Test system: Schistosoma mansoni schistosomula (LE)
experiment summary: XTT viability relative to DMSO control; higher = more viable (less active)
recorded conditions: 72 h; 10 µM
measured quantity: XTT viability (%)
Give just the number in %; leave the unit off.

XTT viability for Schistosoma mansoni schistosomula (LE) with input CNCCC(Oc1ccc(C(F)(F)F)cc1)c1ccccc1 (stereo unspecified) equals 20.4

XTT viability for Schistosoma mansoni schistosomula (LE) with input CN1CCN(CCCOc2ncc(Nc3ncc(-c4ccc(C(F)(F)F)c(F)c4)nc3C(N)=O)cn2)CC1 equals 5.2

XTT viability for Schistosoma mansoni schistosomula (LE) with input NC(=O)c1cc(-c2ccsc2)ccc1OCCOc1ccccc1 equals 89.5

XTT viability for Schistosoma mansoni schistosomula (LE) with input CC(C)(C)n1nc(-c2ccccc2)c2c(N)ncnc21 equals 106

XTT viability for Schistosoma mansoni schistosomula (LE) with input Cc1cc(Nc2ccc(C(F)(F)F)cc2)n2ccnc2n1 equals 71.7

XTT viability for Schistosoma mansoni schistosomula (LE) with input O=C(NCCN1CCCC1)c1cc(NCCN2CCOCC2)nc2ccc(Cl)cc12 equals 146

* * *

System: Schistosoma mansoni schistosomula (Liberian)
experiment summary: drug effect (1 - score/DMSO control score) (fraction); higher = more antischistosomal effect, active = 0.5 or more; extreme values may be limits of the assay
recorded conditions: 48 h; 10 µM
Hi there, use one of these labels in your reply, thanks! active, inactive

Exercise: State the result this test recorded for Clc1ccc(Cl)c(CO[C@H]2CCCC[C@@H]2n2ccnc2)c1 .
Key: inactive

Exercise: State the result this test recorded for Nc1nc2ccc(-c3cncc(Oc4ccc(F)cc4)c3)cc2[nH]1 .
Key: active

Exercise: State the result this test recorded for COc1cc(C(F)(F)F)nc2ccc(C)c(N)c12 .
Key: inactive

Exercise: State the result this test recorded for CC(Oc1ccccc1)C(=O)Nc1nc(-c2ccccn2)cs1 (stereo unspecified) .
Key: active

Exercise: State the result this test recorded for Cc1cnc(CCNC(=O)c2cc(-c3ccc(Cl)cc3)cs2)[nH]1 .
Key: inactive

Exercise: State the result this test recorded for CNC(=O)C1Cc2c([nH]c3cc(Cl)ccc23)C2(CCN(CCc3ccccc3)CC2)N1 (stereo unspecified) .
Key: active

* * *

For each of the compounds below, state its drug effect.
Test system: Schistosoma mansoni schistosomula (Liberian)
experiment summary: drug effect (1 - score/DMSO control score) (fraction); higher = more antischistosomal effect, active = 0.5 or more; extreme values may be limits of the assay
recorded conditions: 24 h; 10 µM

Noted for CC(Oc1ccccc1)C(=O)Nc1nc(-c2ccccn2)cs1 (centres undefined) : its drug effect reads 0.297 (inactive)

Noted for CC(C)(C)OC(=O)N1CCN(c2cc(-c3ccc(Oc4ccccc4)cc3)n[nH]2)CC1 : its drug effect reads 0.0526 (inactive)

Noted for Nc1ccc(C(=O)Nc2ccc(-c3nc4ccccc4o3)cc2)cc1 : its drug effect reads 0.0909 (inactive)

Noted for CCc1ccc(S(=O)(=O)Nc2cc(CN3CCN(CCC(C)C)CC3)ccc2C)cc1 : its drug effect reads 0.25 (inactive)

Noted for COc1cncc(-c2cncc(N3CCN(c4ccncc4)CC3)n2)c1 : its drug effect reads 0.351 (inactive)

Noted for Clc1ccc(CCNc2cc(-c3ccccc3)nc3ncnn23)cc1 : its drug effect reads 0.136 (inactive)

Noted for CC(C)NCC(=O)Nc1cccc(C(=O)Nc2cccc(C(F)(F)F)c2)c1 : its drug effect reads 0.2 (inactive)

Noted for O=C(NC1CCN(c2ccnc3ccccc23)C1)c1cccc(C(F)(F)F)c1 (centres undefined) : its drug effect reads 0.135 (inactive)

Noted for COc1ccc(-c2onc(C(F)(F)F)c2-c2ccc(Cl)cc2)c(O)c1 : its drug effect reads 0.15 (inactive)

Noted for COc1cc(C2=NCCN2)ccc1-c1cn(-c2cccc(C3=NCCN3)c2)nn1 : its drug effect reads 0.25 (inactive)

Noted for Brc1c(-c2ccc3c(c2)OCO3)nc2ncccn12 : its drug effect reads 0.182 (inactive)

Noted for CCc1ccc(C(NCc2nc(N)nc(N(C)C)n2)C(C)C)cc1 (centres undefined) : its drug effect reads < 0 (inactive)

Noted for COc1cccn2c(C(=O)N3CCCCC3)c(C(F)(F)F)nc12 : its drug effect reads 0.182 (inactive)

Noted for COc1ccc(C2=NCCN2)cc1-c1cn(-c2cccc(C3=NCCN3)c2)nn1 : its drug effect reads 0.1 (inactive)

Noted for CO[C@@H](C(=O)N1Cc2[nH]nc(NC(=O)c3ccc(N4CCN(C)CC4)cc3)c2C1)c1ccccc1 : its drug effect reads 0.15 (inactive)

Noted for CC(=O)Nc1ccc(NC(=O)c2cc(-c3cc(Cl)ccc3O)[nH]n2)cc1 : its drug effect reads 0.227 (inactive)

Noted for CC(=O)Oc1ccccc1C(=O)Nc1ncc([N+](=O)[O-])s1 : its drug effect reads 0.2 (inactive)

Noted for CC(C)(CN)c1nc(-c2ccc(Cl)c(O)c2)c(-c2ccnc(N)n2)[nH]1 : its drug effect reads 0.15 (inactive)

Noted for COc1cccc(-n2nnnc2S(C)(=O)=O)c1 : its drug effect reads 1 (active)

Noted for O=C(NC1CC1)c1ccc(N2CCOc3ccc(Cl)cc32)s1 : its drug effect reads 0.35 (inactive)

Noted for CCOc1ccc2cc(-c3nn(C(C)(C)C)c(N)c3C(N)=O)cnc2c1 : its drug effect reads 0.2 (inactive)

Noted for Cn1c(=O)c2c(S(C)(=O)=O)snc2n(C)c1=O : its drug effect reads 1 (active)

Noted for Cc1ccc(NC(=O)c2cc(S(=O)(=O)NC(C)(C)C)ccc2C)nc1 : its drug effect reads 0.2 (inactive)

Noted for CC1CCCCN1C(=O)NCCc1coc(-c2ccc(F)cc2)n1 (centres undefined) : its drug effect reads 0.0909 (inactive)

Noted for Cc1cc(C(=O)Nc2ccc(-c3ccccc3)cc2)no1 : its drug effect reads 0.1 (inactive)

Noted for O=C(NC1=NCCS1)c1sc2cc(F)ccc2c1Cl : its drug effect reads 0.0909 (inactive)

Noted for CC(=O)NC[C@@H]1CN(c2ccc(N3CCOCC3)c(F)c2)C(=O)O1 : its drug effect reads 0.227 (inactive)

Noted for COc1ccc(N(CCc2cccc(C)n2)C(=O)C2CCCCC2)cc1 : its drug effect reads 0.15 (inactive)

Noted for c1ccc(C[C@@H]2CN(c3nccc(Oc4ccc(-n5ccnc5)cc4)n3)CCN2)cc1 : its drug effect reads 0.1 (inactive)

Noted for CCCn1nnc(NC(=O)COc2ccc(C3CCCCC3)cc2)n1 : its drug effect reads 0.136 (inactive)

Noted for NC(CC(=O)c1ccc(Cl)cc1Cl)C(Cl)(Cl)Cl (centres undefined) : its drug effect reads 0.0455 (inactive)

Noted for CN(C)c1cc(NC(=O)Nc2ccccc2)c2ccccc2n1 : its drug effect reads 0.182 (inactive)

Noted for CCNC(=O)C(C)Nc1nc(-c2cccnc2)nc2sc(C)c(C)c12 (centres undefined) : its drug effect reads < 0 (inactive)

Noted for O=S(=O)(c1ccc(Cl)cc1)N1CCN(C(=S)NCc2ccco2)CC1 : its drug effect reads 0.05 (inactive)

Noted for Clc1ccc(-n2cc(COc3ccnc4ccccc34)nn2)cc1 : its drug effect reads 0.105 (inactive)

Noted for N#Cc1ccc(-c2cnc(N)c(-c3ccc(C(N)=O)cc3)n2)cc1 : its drug effect reads 0.027 (inactive)

Noted for CC1=Nc2ccc(Cl)cc2C(O)(c2ccc(C)cc2)N1CCN1CCCCC1 (centres undefined) : its drug effect reads < 0 (inactive)

Noted for CC1=NN(c2nc3ccccc3s2)C(=O)C1Cc1cccc2ccccc12 (centres undefined) : its drug effect reads 0.0909 (inactive)

Noted for O=C(c1ccc(NCCO)cc1)C1C[C@H]1c1ccc(Cl)cc1 (some centres undefined) : its drug effect reads 0.135 (inactive)

Noted for N=C(N)c1ccc(-c2cc(-c3ccccc3)on2)cc1 : its drug effect reads 0.182 (inactive)

Noted for COCC(C)NC(=O)CSc1ncnc2sc(-c3ccccc3)cc12 (centres undefined) : its drug effect reads 0.1 (inactive)

Noted for COc1ccc(CN2CCOc3ccc(C(C)(O)CN(C)C)cc3C2)cc1C (centres undefined) : its drug effect reads 0.1 (inactive)

Noted for CC(C)(C)c1cc(C(=O)N2CCN(c3nccnc3C#N)CC2)n(Cc2ccccc2)n1 : its drug effect reads < 0 (inactive)

Noted for COc1ccccc1CNC(=O)c1cc(C2CC2)nc2c1cnn2C(C)C : its drug effect reads 0.2 (inactive)
